Hello, the source for this data is patent US12344618B2, in case you need it.

measurement-notes: Metabolic stability in human liver microsomes
Assay type: in vitro ADME
particulars: 5 μM compound, 1 mg/mL human liver microsomes, 37° C., NADPH regenerating system
Each entry falls into one class according to its Residual amount (%) of test compound after 1 hour of reaction, Human; the ranges are low = under 60%, mid = from 60% up to 80%, high = 80% and over

A selection of reference data follows.
INSERT INTO results (compound, class_label) VALUES
  ('Cc1cc(C)c(CN2CCc3c(C)c4c(c(Cl)c3C2=O)OC(C)([C@H]2CC[C@H](N(C)C)CC2)O4)c(=O)[nH]1 (single isomer, unassigned) [Compound 5]', 'high'),
  ('Cc1cc(C)c(CN2CCc3c(C)c4c(c(C)c3C2=O)OC(C)([C@H]2CC[C@H](N(C)C)CC2)O4)c(=O)[nH]1 (single isomer, unassigned) [Compound 41]', 'low'),
  ('C=Cc1c2c(c(C)c3c1OC(C)([C@H]1CC[C@H](N(C)C)CC1)O3)C(=O)N(Cc1c(C)cc(C)[nH]c1=O)CC2 (stereo partly drawn) [Compound 52]', 'mid');

input: Dear colleague, I would appreciate it if you could identify the bin for Cc1cc(C)c(CN2CCc3c(Cl)c4c(c(C)c3C2=O)OC(C)([C@H]2CC[C@H](N(C)C)CC2)O4)c(=O)[nH]1 (mixture of isomers) [Compound 9] and reply at your convenience.
output: low

input: Dear colleague, I would appreciate it if you could identify the bin for Cc1cc(C)c(CN2CCc3c(Cl)c4c(c(C)c3C2=O)OC(C)([C@H]2CC[C@H](N(C)C)CC2)O4)c(=O)[nH]1 (single isomer, unassigned) [Compound 11] and reply at your convenience.
output: low

input: Dear colleague, I would appreciate it if you could identify the bin for Cc1cc(C)c(CN2CCc3c(C)c4c(c(Cl)c3C2=O)OC(C)([C@H]2CC[C@H](N(C)C)CC2)O4)c(=O)[nH]1 (stereo partly drawn) [Compound 4] and reply at your convenience.
output: high

input: Dear colleague, I would appreciate it if you could identify the bin for C#Cc1c2c(c(C)c3c1OC(C)([C@H]1CC[C@H](N(C)C)CC1)O3)C(=O)N(Cc1c(C)cc(C)[nH]c1=O)CC2 (stereo partly drawn) [Compound 53] and reply at your convenience.
output: mid

input: Dear colleague, I would appreciate it if you could identify the bin for Cc1cc(C)c(CNC(=O)c2cc(Cl)c3c(c2C)O[C@@](C)([C@H]2CC[C@H](N(C)C)CC2)O3)c(=O)[nH]1 [Control B] and reply at your convenience.
output: mid

input: Dear colleague, I would appreciate it if you could identify the bin for CCCc1cc(C)[nH]c(=O)c1CN1CCc2c(C)c3c(c(C)c2C1=O)OC(C)([C@H]1CC[C@H](N(C)C)CC1)O3 (stereo partly drawn) [Compound 43] and reply at your convenience.
output: low

input: Dear colleague, I would appreciate it if you could identify the bin for CN[C@H]1CC[C@H](C2(C)Oc3c(C)c4c(c(Cl)c3O2)CCN(Cc2c(C)cc(C)[nH]c2=O)C4=O)CC1 (stereo partly drawn) [Compound 34] and reply at your convenience.
output: mid

====

test-target: UniProt Q15910
Sequence (Q15910 whole entry): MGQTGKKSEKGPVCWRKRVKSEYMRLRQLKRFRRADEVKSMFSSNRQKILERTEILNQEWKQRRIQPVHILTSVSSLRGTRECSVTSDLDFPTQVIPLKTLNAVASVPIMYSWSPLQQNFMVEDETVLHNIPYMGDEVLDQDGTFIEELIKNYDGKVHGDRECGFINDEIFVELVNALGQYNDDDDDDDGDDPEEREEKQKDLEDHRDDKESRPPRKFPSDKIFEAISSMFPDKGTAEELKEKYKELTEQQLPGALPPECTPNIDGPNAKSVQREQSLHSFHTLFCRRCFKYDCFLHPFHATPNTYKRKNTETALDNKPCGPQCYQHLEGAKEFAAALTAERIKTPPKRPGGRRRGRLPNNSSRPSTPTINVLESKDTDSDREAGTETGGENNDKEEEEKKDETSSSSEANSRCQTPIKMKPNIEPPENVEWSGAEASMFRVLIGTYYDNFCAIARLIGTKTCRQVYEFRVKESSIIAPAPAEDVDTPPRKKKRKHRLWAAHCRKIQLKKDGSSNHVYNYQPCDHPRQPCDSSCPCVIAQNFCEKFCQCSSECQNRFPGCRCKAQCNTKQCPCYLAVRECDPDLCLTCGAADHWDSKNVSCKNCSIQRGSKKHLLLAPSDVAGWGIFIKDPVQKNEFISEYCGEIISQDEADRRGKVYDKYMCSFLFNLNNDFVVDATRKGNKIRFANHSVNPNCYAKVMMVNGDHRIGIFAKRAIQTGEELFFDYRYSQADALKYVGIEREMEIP
Sequence (O75530 whole entry partner): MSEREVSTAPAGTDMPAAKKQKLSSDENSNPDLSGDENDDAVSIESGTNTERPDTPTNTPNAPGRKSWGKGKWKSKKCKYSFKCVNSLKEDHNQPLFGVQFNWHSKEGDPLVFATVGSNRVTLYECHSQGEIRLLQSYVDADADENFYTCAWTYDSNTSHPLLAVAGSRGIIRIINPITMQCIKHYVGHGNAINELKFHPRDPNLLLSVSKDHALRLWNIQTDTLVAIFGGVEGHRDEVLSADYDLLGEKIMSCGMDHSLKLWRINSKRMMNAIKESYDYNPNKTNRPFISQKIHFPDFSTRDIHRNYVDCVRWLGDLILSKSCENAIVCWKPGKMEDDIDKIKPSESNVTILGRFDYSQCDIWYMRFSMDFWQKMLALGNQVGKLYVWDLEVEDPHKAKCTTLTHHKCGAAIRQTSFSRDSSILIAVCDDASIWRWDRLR
Sequence (Q15022 whole entry partner): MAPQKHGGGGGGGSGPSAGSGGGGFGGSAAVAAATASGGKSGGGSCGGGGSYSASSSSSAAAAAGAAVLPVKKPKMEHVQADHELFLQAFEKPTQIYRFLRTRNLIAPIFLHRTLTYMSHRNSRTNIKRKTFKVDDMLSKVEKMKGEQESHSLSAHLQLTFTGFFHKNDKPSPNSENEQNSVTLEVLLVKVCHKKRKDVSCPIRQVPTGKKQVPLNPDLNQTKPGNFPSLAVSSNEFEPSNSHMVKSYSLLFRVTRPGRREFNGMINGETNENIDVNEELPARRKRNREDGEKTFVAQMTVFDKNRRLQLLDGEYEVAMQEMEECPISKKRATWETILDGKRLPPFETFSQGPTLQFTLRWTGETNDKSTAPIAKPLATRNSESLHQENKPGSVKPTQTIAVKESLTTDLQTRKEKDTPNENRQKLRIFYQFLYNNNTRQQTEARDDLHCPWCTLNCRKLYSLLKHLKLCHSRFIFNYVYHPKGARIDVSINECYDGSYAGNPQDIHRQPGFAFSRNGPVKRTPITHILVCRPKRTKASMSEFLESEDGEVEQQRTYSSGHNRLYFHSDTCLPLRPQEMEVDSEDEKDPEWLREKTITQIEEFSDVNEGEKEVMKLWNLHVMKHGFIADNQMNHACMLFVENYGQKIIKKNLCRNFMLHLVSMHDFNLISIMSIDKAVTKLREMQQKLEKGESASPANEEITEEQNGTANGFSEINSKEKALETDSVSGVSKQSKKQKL
Sequence (Q09028 whole entry partner): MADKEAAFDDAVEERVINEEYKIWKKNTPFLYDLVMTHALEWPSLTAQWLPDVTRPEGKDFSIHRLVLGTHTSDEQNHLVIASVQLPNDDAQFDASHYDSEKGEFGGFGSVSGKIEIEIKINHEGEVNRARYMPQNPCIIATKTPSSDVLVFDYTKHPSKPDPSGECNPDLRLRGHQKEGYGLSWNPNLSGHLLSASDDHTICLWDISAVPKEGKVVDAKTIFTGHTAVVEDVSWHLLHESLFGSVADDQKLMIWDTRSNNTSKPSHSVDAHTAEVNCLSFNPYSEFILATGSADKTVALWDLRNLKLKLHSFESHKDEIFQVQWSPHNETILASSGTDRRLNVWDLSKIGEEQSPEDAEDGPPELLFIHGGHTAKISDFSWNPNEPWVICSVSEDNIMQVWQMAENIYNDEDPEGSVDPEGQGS
Sequence (Q6ZN18 whole entry partner): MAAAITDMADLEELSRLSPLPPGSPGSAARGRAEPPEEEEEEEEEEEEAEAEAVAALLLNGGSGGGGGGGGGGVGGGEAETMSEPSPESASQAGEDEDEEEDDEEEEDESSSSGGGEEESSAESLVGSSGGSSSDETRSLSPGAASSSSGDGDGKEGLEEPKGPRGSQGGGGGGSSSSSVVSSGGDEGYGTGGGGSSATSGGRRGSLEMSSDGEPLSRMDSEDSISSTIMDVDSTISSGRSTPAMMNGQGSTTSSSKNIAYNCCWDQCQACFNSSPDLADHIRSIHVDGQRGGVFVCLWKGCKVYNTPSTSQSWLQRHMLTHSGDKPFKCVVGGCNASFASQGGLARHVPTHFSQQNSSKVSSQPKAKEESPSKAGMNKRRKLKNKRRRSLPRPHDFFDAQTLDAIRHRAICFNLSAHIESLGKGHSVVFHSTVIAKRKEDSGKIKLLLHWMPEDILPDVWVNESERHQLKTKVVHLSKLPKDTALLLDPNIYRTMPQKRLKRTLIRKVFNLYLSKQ
measurement-notes: Inhibitory activity against EZH2 methyltransferase (radiometric scintillation proximity assay);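 also: Read-out is substrate peptide methylation, captured on streptavidin-coated SPA beads and counted by scintillation, with the reaction run in Tris-HCl buffer at pH 8.0 containing 1% DMSO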
particulars: Enzyme inhibitory activity (IC50, nM) EZH2, 2.3 nmol/L enzyme, 90 minutes, room temperature
Can you tell me IC50 for the items I'm about to list?
Numbers only, in nM.

Use the examples below as a reference point.
INSERT INTO assay_data (compound, test_target, val) VALUES
  ('Cc1cc(C)c(CN2CCc3c(Cl)c4c(c(C)c3C2=O)OC(C)(C2CCOCC2)O4)c(=O)[nH]1 (centres unmarked)', 'UniProt Q15910', 3),
  ('Cc1cc(C)c(CN2CCc3c(Cl)c4c(c(C)c3C2=O)OC(C)([C@H]2CC[C@H](N3CCCCC3)CC2)O4)c(=O)[nH]1 (some centres unmarked)', 'UniProt Q15910', 5.6);

Batch request: IC50 per item, same order as input.
1. Cc1cc(C)c(CN2CCc3c(Cl)c4c(c(Cl)c3C2=O)OC(C)([C@H]2CC[C@H](N(C)C)CC2)O4)c(=O)[nH]1 (some centres unmarked)
2. CCN[C@H]1CC[C@H](C2(C)Oc3c(C)c4c(c(C)c3O2)C(=O)N(Cc2c(OC)cc(C)[nH]c2=O)CC4)CC1 (some centres unmarked)

output:
1. 3.8
2. 6.2

Batch request: IC50 per item, same order as input.
1. Cc1cc(C)c(CN2CCc3c(C)c4c(c(C)c3C2=O)OC(C)([C@H]2CC[C@H](N(C)C)CC2)O4)c(=O)[nH]1 (single isomer, unassigned) [Compound 41]
2. Cc1cc(C)c(CN2CCc3c(Cl)c4c(c(C)c3C2=O)OC(C)(C2CCNCC2)O4)c(=O)[nH]1 (centres unmarked)
3. Cc1cc(C)c(CN2CCc3c(Cl)c4c(c(C)c3C2=O)OC(C)(c2ccc(N(C)C)cc2)O4)c(=O)[nH]1 (centres unmarked)
4. Cc1cc(C)c(CN2CCc3c(C)c4c(c(C)c3C2=O)OC(C)(C2CCCCC2)O4)c(=O)[nH]1 (centres unmarked)
5. Cc1cc(C)c(CN2CCc3c(C)c4c(c(C)c3C2=O)OC(C)([C@H]2CC[C@H](N(C)C)CC2)O4)c(=O)[nH]1 (single isomer, unassigned) [Compound 40]

output:
1. 69
2. 3.2
3. 11
4. 0.4
5. 1.8

Batch request: IC50 per item, same order as input.
1. CCCc1cc(C)[nH]c(=O)c1CN1CCc2c(C)c3c(c(C)c2C1=O)OC(C)([C@H]1CC[C@H](N(C)C)CC1)O3 (some centres unmarked)
2. Cc1cc(C)c(CN2CCc3c(Cl)c4c(c(C)c3C2=O)OC(C)(C2CCCCC2)O4)c(=O)[nH]1 (centres unmarked)
3. Cc1cc(C)c(CN2CCc3c(c(C)c4c(c3C3CC3)OC(C)([C@H]3CC[C@H](N(C)C)CC3)O4)C2=O)c(=O)[nH]1 (some centres unmarked)
4. Cc1cc(C)c(CN2CCc3c(c(C)c4c(c3-c3ccc(CN5CCOCC5)cc3)OC(C)([C@H]3CC[C@H](N(C)C)CC3)O4)C2=O)c(=O)[nH]1 (some centres unmarked)
5. CCN(CC)[C@H]1CC[C@H](C2(C)Oc3c(C)c4c(c(Cl)c3O2)CCN(Cc2c(C)cc(C)[nH]c2=O)C4=O)CC1 (some centres unmarked)

output:
1: 1.4; 2: 16; 3: 6.4; 4: 5.6; 5: 11
